Listed next: entries and their corresponding binding signal.
# study-system: BATF2 (bZIP);JUNB (human;human, UniProt Q8N1L9;P17275 1-142;148-347, |)
# Sequence 1: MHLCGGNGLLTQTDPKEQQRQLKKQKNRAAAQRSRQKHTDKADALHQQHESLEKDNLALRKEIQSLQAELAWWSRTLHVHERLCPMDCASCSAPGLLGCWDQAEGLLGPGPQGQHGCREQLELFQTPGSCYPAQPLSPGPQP
# Sequence 2: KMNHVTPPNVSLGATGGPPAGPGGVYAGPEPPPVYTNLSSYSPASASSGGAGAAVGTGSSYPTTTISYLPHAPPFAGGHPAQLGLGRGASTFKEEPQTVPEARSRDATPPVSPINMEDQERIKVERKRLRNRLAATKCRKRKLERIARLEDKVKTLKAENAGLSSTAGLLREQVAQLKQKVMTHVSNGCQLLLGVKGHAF
# test-description: Spec-seq (EMSA and sequencing of bound and unbound bands); 100 nM BATFx-JUNB, 1 uM dsDNA library, 50 mM K acetate, 20 mM Tris-acetate, 10 mM Mg acetate, 100 ug/ml BSA, pH 7.9, 10% glycerol, 30 min on ice; native 9% PAGE at 4 C; low values mean tight binding
# settings: protein: recombinant;recombinant; tags: N-terminal mCherry-TEV, cleaved off;C-terminal 6His; copies: 1;1; dsDNA, one strand shown

residues	binding signal, kT
GATAGTCTCATTTTCACCCCGTGAAATGAGTCTATTGTTCCATTACAGTATCTGT	1.33
GATAGTCTCATTTTCACCCCGTGAAATGAGTCTGTTGTTCCATTACAGTATCTGT	1.09
GATAGTCTCATTTTCACCCCGTGAAATGACGCAGTTGTTCCATTACAGTATCTGT	0.363
GATAGTCTCATTTTCACCCCGTGAAATGAGTCCTTTGTTCCATTACAGTATCTGT	1.09
GATAGTCTCATTTTCACCCCGTGAAATGACTCTTTTGTTCCATTACAGTATCTGT	0.673
GATAGTCTCATTTTCACCCCGTGAAAGTGAGTCATTGTTCCATTACAGTATCTGT	-0.978
GATAGTCTCATTTTCACCCCGTGAAATGAGTGATTTGTTCCATTACAGTATCTGT	0.704
GATAGTCTCATTTTCACCCCGTGAAATGACTCACTTGTTCCATTACAGTATCTGT	-0.378
GATAGTCTCATTTTCACCCCGTGAAATGACTAAGTTGTTCCATTACAGTATCTGT	0.286

Data origin: paper PMC5869772
